# MEASURED ON: ERα (Homo sapiens, UniProt P03372)
# Sequence (P03372 whole entry): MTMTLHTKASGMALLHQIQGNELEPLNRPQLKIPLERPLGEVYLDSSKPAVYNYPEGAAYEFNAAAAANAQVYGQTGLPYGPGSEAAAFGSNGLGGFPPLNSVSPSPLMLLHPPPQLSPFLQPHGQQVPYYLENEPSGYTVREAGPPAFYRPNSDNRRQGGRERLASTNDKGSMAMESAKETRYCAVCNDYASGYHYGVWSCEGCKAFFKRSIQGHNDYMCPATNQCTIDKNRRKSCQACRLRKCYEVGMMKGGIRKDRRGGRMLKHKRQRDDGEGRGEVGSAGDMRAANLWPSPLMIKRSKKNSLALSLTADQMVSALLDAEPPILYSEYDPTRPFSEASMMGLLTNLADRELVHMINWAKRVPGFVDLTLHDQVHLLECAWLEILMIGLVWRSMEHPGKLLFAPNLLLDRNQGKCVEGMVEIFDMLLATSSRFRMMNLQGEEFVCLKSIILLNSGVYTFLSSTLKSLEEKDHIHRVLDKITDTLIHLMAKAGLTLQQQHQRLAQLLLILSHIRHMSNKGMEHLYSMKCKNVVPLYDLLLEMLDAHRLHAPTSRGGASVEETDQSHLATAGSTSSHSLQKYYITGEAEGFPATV
# PROTOCOL TEXT: ERα degradative activity in T47D cells (western blot, densitometry)
# Assay type: cell-based
# Parameters: endogenous in cells; host or cells: T47D
# ASSAY CONDITIONS: T47D cell line; concentration at which 50% of the target protein (ERα) is degraded
MEASURED PROPERTY: DC50

Consider the worked cases shown below.
COMPOUND	MEASURED ON	RESULT
CC/C(=C(\c1ccccc1)c1ccc(OCCN(C)C(=O)CCOCCOCCNc2cccc3c2C(=O)N(C2CCC(=O)NC2=O)C3=O)cc1)c1ccccc1 (stereo not shown)	ERα (Homo sapiens, UniProt P03372)	> 3 µM
CC/C(=C(\c1ccccc1)c1ccc(OCCN(C)C(=O)CCOCCOCCOCCOCCOCCNc2cccc3c2C(=O)N(C2CCC(=O)NC2=O)C3=O)cc1)c1ccccc1 (stereo not shown)	ERα (Homo sapiens, UniProt P03372)	≤ 1.5 µM
CC/C(=C(\c1ccccc1)c1ccc(OCCN(C)C(=O)CCNc2cccc3c2C(=O)N(C2CCC(=O)NC2=O)C3=O)cc1)c1ccccc1 (stereo not shown)	ERα (Homo sapiens, UniProt P03372)	≤ 1.5 µM

### Prompt Bench note: what DC50 did CC/C(=C(\c1ccccc1)c1ccc(OCCN(C)C(=O)CCOCCOCCOCCOCCNc2cccc3c2C(=O)N(C2CCC(=O)NC2=O)C3=O)cc1)c1ccccc1 (stereo not shown) show?
### Response ≤ 1.5 µM

### Prompt Please do the same for CC/C(=C(\c1ccccc1)c1ccc(OCCN(C)C(=O)CCCCCCNc2cccc3c2C(=O)N(C2CCC(=O)NC2=O)C3=O)cc1)c1ccccc1 (stereo not shown) as well.
### Response 1.5 to 3 µM

### Prompt Also CC/C(=C(\c1ccccc1)c1ccc(OCCN(C)C(=O)CCCCCCCNc2cccc3c2C(=O)N(C2CCC(=O)NC2=O)C3=O)cc1)c1ccccc1 (stereo not shown) ?
### Response 1.5 to 3 µM

### Prompt And then CC/C(=C(\c1ccccc1)c1ccc(OCCN(C)C(=O)CCOCCNc2cccc3c2C(=O)N(C2CCC(=O)NC2=O)C3=O)cc1)c1ccccc1 (stereo not shown) , what is it?
### Response > 3 µM
